Target: NLRP3 (Homo sapiens, UniProt Q96P20)
Sequence (Q96P20 whole entry): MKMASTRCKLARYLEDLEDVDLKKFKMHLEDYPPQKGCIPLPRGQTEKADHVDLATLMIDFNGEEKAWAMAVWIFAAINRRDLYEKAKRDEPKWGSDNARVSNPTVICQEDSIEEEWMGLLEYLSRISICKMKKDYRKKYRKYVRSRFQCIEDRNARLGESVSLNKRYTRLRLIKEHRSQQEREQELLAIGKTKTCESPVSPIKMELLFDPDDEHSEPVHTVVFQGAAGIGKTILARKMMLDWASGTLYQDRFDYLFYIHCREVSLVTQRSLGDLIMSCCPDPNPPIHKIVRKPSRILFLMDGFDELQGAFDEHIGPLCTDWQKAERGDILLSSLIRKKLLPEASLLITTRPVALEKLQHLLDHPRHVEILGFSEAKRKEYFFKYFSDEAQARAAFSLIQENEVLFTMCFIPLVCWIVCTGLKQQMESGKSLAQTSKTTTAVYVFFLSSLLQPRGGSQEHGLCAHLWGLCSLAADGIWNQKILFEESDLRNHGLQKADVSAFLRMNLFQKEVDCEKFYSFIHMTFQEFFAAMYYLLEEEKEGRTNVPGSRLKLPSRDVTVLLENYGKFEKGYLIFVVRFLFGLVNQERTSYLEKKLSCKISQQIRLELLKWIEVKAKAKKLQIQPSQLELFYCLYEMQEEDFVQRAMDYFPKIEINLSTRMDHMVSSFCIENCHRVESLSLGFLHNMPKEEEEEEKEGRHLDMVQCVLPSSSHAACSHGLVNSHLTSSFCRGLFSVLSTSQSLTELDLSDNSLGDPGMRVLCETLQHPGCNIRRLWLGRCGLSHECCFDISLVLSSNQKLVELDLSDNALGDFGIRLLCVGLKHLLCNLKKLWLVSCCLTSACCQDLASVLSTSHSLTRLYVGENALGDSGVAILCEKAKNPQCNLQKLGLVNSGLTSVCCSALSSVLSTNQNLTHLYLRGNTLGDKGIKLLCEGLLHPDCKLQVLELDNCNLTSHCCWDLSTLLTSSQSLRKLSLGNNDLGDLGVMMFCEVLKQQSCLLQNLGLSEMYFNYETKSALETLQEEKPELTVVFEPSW
Test: THP-1 cells pyroptosis assay
Format: cell-based
Set-up: Seed THP-1 cells (25,000 cells/well) containing 1.0 μg/ml LPS; host or cells: THP-1 cells, LPS-primed, nigericin-stimulated
Details: 1.0 μg/ml LPS, nigericin 5 μM, resazurin readout
Entries and their measured IC50 follow.

{"columns": ["molecule", "target.desc", "IC50"],
 "data": [
  ["CCN(C)C(=O)c1cc(S(=O)(=O)NC(=O)Nc2c(C(C)C)cccc2C(C)C)nn1C [Example 56]", "NLRP3 (Homo sapiens, UniProt Q96P20)", "640 to 2560 nM"],
  ["CN(C)C(=O)C(C)(C)n1ccc(S(=O)(=O)NC(=O)Nc2c3c(cc4c2CCC4)CCC3)n1 [Example 83]", "NLRP3 (Homo sapiens, UniProt Q96P20)", "40 to 160 nM"],
  ["COC1CCN(C(=O)c2cc(S(=O)(=O)NC(=O)Nc3c4c(cc5c3CCC5)CCC4)nn2C)C1 (centres unmarked) [Example 25]", "NLRP3 (Homo sapiens, UniProt Q96P20)", "2560 to 10000 nM"],
  ["CC(C)c1ccc(-c2cncnc2)cc1NC(=O)NS(=O)(=O)c1cc(C(=O)N(C)C)n(C)n1 [Example 34]", "NLRP3 (Homo sapiens, UniProt Q96P20)", "640 to 2560 nM"],
  ["CCN(C)C(=O)c1cc(S(=O)(=O)NC(=O)Nc2c(C(C)C)cc(F)cc2C(C)C)nn1C [Example 49]", "NLRP3 (Homo sapiens, UniProt Q96P20)", "160 to 640 nM"],
  ["CC(C)c1cc(F)cc(-c2cncnc2)c1NC(=O)NS(=O)(=O)c1cc(C(=O)N(C)C)n(C)n1 [Example 42]", "NLRP3 (Homo sapiens, UniProt Q96P20)", "160 to 640 nM"],
  ["CN(C(=O)c1cc(S(=O)(=O)NC(=O)Nc2c3c(cc4c2CCC4)CCC3)nn1C)C1CCCC1 [Example 11]", "NLRP3 (Homo sapiens, UniProt Q96P20)", "640 to 2560 nM"],
  ["Cn1nc(S(=O)(=O)NC(=O)Nc2c3c(cc4c2CCC4)CCC3)cc1C(=O)NCCO [Example 76]", "NLRP3 (Homo sapiens, UniProt Q96P20)", "2560 to 10000 nM"]
]}

----------
Molecular target: UniProt:Q96P20
Assay: THP-1 cells pyroptosis assay
Format: cell-based
Parameters: Seed THP-1 cells (25,000 cells/well) containing 1.0 μg/ml LPS; host or cells: THP-1 cells, LPS-primed, nigericin-stimulated
Details: 1.0 μg/ml LPS, nigericin 5 μM, resazurin readout
A collection of molecules and their measured IC50
endpoint.name: IC50

{"columns": ["smiles.code", "readout.value"],
 "data": [
  ["COc1cc(-c2ccc3c(c2NC(=O)NS(=O)(=O)c2cc(C(=O)N(C)C)n(C)n2)CCC3)ccn1", "< 0.04 µM"],
  ["CN(C)C(=O)Cn1ccc(S(=O)(=O)NC(=O)Nc2c3c(cc4c2CCC4)CCC3)n1", "0.16 to 0.64 µM"],
  ["COCCN(CCOC)C(=O)c1cc(S(=O)(=O)NC(=O)Nc2c(-c3ccnc(OC(C)C)c3)cc(F)cc2C(C)C)nn1C", "2.56 to 10 µM"],
  ["Cn1nc(S(=O)(=O)NC(=O)Nc2c3c(cc4c2CCC4)CCC3)cc1C(=O)N1CCC(O)CC1", "2.56 to 10 µM"],
  ["CN(C(=O)c1cc(S(=O)(=O)NC(=O)Nc2c3c(cc4c2CCC4)CCC3)nn1C)C1CC1", "0.04 to 0.16 µM"],
  ["CC(C)c1cccc(C(C)C)c1NC(=O)NS(=O)(=O)c1cc(C(=O)N(C)C(C)C)n(C)n1", "0.16 to 0.64 µM"],
  ["CN(C(=O)c1cc(S(=O)(=O)NC(=O)Nc2c3c(cc4c2CCC4)CCC3)nn1C)C1CCC1", "0.16 to 0.64 µM"]
]}
